- assayed.target: Na+/K+ ATPase
- assay.procedure: colorimetric ATPase assay
- Format: biochemical, Sus scrofa
IC50 values for the compounds below.

compound.smiles	assayed.target	IC50 (nM)
C[C@H]1O[C@@H](O[C@H]2[C@@H](O)C[C@H](O[C@H]3[C@@H](O)C[C@H](O[C@H]4CC[C@@]5(C)[C@H](CC[C@@H]6[C@@H]5CC[C@]5(C)[C@@H](C7=CC(=O)OC7)CC[C@]65O)C4)O[C@@H]3C)O[C@@H]2C)C[C@H](O)[C@@H]1O	Na+/K+ ATPase	2800
C[C@@H]1O[C@@H](O[C@H]2CC[C@@]3(C)[C@H](CC[C@@H]4[C@@H]3CC[C@]3(C)[C@@H](C5=CC(=O)OC5)CC[C@]43O)C2)[C@H](O)[C@H](O)[C@H]1O	Na+/K+ ATPase	1100
